Where do the numbers come from? From ChEMBL document CHEMBL3885861.

- Species: Rattus norvegicus
- test.name: Open TG-GATES - Regimen: Daily Repeat
- Type: toxicity, organism-based, Sprague-Dawley
- Design: regimen Daily Repeat, gender Male, age 6 weeks
- stated.conditions: in vivo, po, 300 mg/kg, 72 h, tissue Plasma, route gavage, dose level Middle, time 3 day
observed.property: IP

// known answers, use as guide
CCCCNC(=O)NS(=O)(=O)c1ccc(C)cc1 [TOLBUTAMIDE] : 8.2 mg/dL
O=C(O)c1ccccc1Nc1ccccc1 : 6.4 mg/dL
CC(S)C(=O)NCC(=O)O (centres undefined) : 7.3 mg/dL

What does the data say about its IP? Entry: CC(=O)[C@@]1(O)CC[C@H]2[C@@H]3C=C(Cl)C4=CC(=O)CC[C@]4(C)[C@H]3CC[C@@]21C
7.5 mg/dL

###

The following compounds are listed with their measured PL values.
- Organism: Rattus norvegicus
- test.name: Open TG-GATES - Regimen: Daily Repeat
- Type: toxicity, organism-based, Sprague-Dawley
- Parameters: regimen Daily Repeat, gender Male, age 6 weeks
- stated.conditions: in vivo, po, 1000 mg/kg, […], tissue Plasma, route gavage, dose level High, time 7 day
The response must be a number in mg/dL with no trailing unit.

CC(=O)[C@@]1(O)CC[C@H]2[C@@H]3C=C(Cl)C4=CC(=O)CC[C@]4(C)[C@H]3CC[C@@]21C : 163.8
CCCCNC(=O)NS(=O)(=O)c1ccc(C)cc1 [TOLBUTAMIDE] : 151.8
O=C(O)c1ccccc1Nc1ccccc1 : 155.7

We now examine a further compound.
What does the data say about its PL? Entry: CC(S)C(=O)NCC(=O)O (centres undefined)
132.6

###

- Species: Rattus norvegicus
- test.name: Open TG-GATES - Regimen: Single
- Format: toxicity, organism-based, Sprague-Dawley
- Parameters: regimen Single, gender Male, age 6 weeks
- stated.conditions: in vivo, po, 0 mg/kg, 6 h, tissue Blood, route gavage, dose level Control
observed.property: WBC (x10_2/uL)
The response must be a number in x10_2/uL with no trailing unit.

CN(C)CCCN1c2ccccc2Sc2ccc(Cl)cc21 : 104.6

What does the data say about its WBC? Entry: C=C[C@H]1C[N@@]2CC[C@H]1C[C@@H]2[C@@H](O)c1ccnc2ccc(OC)cc12
100

What does the data say about its WBC? Entry: O=c1ccc2ccccc2o1
115.3

What does the data say about its WBC? Entry: Nc1ccc(Cc2ccc(N)cc2)cc1
104.9

What does the data say about its WBC? Entry: CCO
90.5

What does the data say about its WBC? Entry: O=C(O)c1ccccc1Nc1ccccc1
84.7

What does the data say about its WBC? Entry: COc1ccc([C@@H]2Sc3ccccc3N(CCN(C)C)C(=O)[C@@H]2OC(C)=O)cc1
77

What does the data say about its WBC? Entry: CCCCNC(=O)NS(=O)(=O)c1ccc(C)cc1 [TOLBUTAMIDE]
84.4

###

- Organism: Rattus norvegicus
- test.name: Open TG-GATES - Regimen: Daily Repeat
- Type: toxicity, organism-based, Sprague-Dawley
- Parameters: regimen Daily Repeat, gender Male, age 6 weeks
- stated.conditions: in vivo, po, 1000 mg/kg, […], tissue Blood, route gavage, dose level High, time 7 day
The following compounds are listed with their measured Mono values.
The response must be a number in % with no trailing unit.

What does the data say about its Mono? Entry: CCCCNC(=O)NS(=O)(=O)c1ccc(C)cc1 [TOLBUTAMIDE]
2.4
